# experiment: Half-life was reported for stability at pH 8
# Format: physicochemical
# experimental-context: buffer
property-measured: half-life (min)
Give bare numbers, in min.

Find the measured half-life of CC1(C)CC=CN1[O] and report it.
35

Ref: ChEMBL document CHEMBL1125074
